- Test system: T47D
- test name: NCI tumour cell line growth inhibition, 48 h
Activity calls are given as the source filed them. Cut-off read from the data, not from the text of the source: active = GI50 up to about 1.1 µM and inactive = higher.
reported metric: GI50

CC(=O)OC1CCn2c1nc1c2C(=O)C=C(N2CC2)C1=O (stereo not given)    0.745 µM (active)

Recorded GI50 of O=C(Nc1nnc(-c2ccc(Cl)cc2)o1)C(SC(=S)N1CCOCC1)c1ccccc1 (stereo not given) , please.
21.7 µM (inactive)

Another compound to look at: O=C(NC(=O)c1ccccc1)OC(c1ccccc1)C1CO1 (stereo not given)
> 100 µM (inactive)

Another compound to look at: O=C(O)CCSC(CC1(c2ccc(Cl)cc2)NC(=O)CCS1)c1ccccc1 (stereo not given)
16.1 µM (inactive)

Another compound to look at: O=C(O)CCSc1ncnc2[nH]cnc12
> 100 µM (inactive)

Another compound to look at: O=C(CCl)Nc1ccc(-c2nc3ccccc3s2)cc1
1.53 µM (inactive)

Another compound to look at: O=C1N[C@@H]2O[C@H](CNC(=O)c3cc(Br)c[nH]3)C[C@]2(O)N1.O=C1N[C@H]2O[C@H](CNC(=O)c3cc(Br)c[nH]3)C[C@@]2(O)N1
> 100 µM (inactive)

Another compound to look at: Cc1[nH]c2ncn(/N=C/c3ccccc3)c(=N)c2c1Cc1ccccc1
> 100 µM (inactive)

Another compound to look at: C#C[C@@H](OC(=O)c1ccc([N+](=O)[O-])cc1)[C@@H]1C[C@H]2O[C@@H]([C@H](C/C=C/CC)OC(=O)c3ccc([N+](=O)[O-])cc3)C[C@H]2O1
> 100 µM (inactive)

Another compound to look at: CCCCc1ccc(Nc2ncc3ncn(COCCO)c3n2)cc1
28.4 µM (inactive)

Another compound to look at: C/C(=N\O)c1cccc[n+]1Cc1ccccc1
> 100 µM (inactive)

====

- System: NCI-H522
- test name: NCI tumour cell line growth inhibition, 48 h
The source made the active and inactive calls. Rule as the data show it: active = GI50 up to about 1.1 µM and inactive = higher.
Pick one and only one: 1.0 for active, 0.0 for inactive

Recorded results for 5 compounds are shown here.
Cn1nc(-c2ccccc2)c2c(-c3ccccc3)c3cc(Cl)ccc3nc21    0.0
COC(=O)C1=C(C(=O)OC)C23CC4CCC2(C(=O)C1O3)C4(C)C (configuration not stated)    0.0
N#Cc1nc(/C=C/c2cccnc2)oc1N    0.0
O=C(O)c1cc(S(=O)(=O)N/N=C\c2c3ccccc3[n+]([O-])c3ccccc23)ccc1O    0.0
COc1ccc(N2C(=O)CC(Cl)C2=O)cc1 (configuration not stated)    0.0

Called result for O=C1CCC(c2nc3ccccc3o2)C(=O)N1 (configuration not stated)
0.0

Another compound to look at: CC(C)(CCCCC(C)(C)C1NC(=O)N1)C1NC(=O)N1
0.0

Another compound to look at: Nc1n[n+]([O-])c2cnccc2[n+]1[O-]
0.0

Another compound to look at: COC12OCCN(C)C1=CC(=O)C1=NNC(C)C12 (configuration not stated)
0.0

Another compound to look at: CN1CCN(C2=C(Cl)C(=O)c3c(O)ccc(O)c3C2=O)CC1
1.0

Another compound to look at: CC(=O)OC1C2CCC3C(C)(O)C4CC(O)C(C)(C)C4(O)C(O)CC13CC2(C)O (configuration not stated)
0.0

Another compound to look at: CCOC(=O)COc1ccc(/C=C/C(=O)c2ccc(OC)cc2)cc1
0.0

====

- Tested on: ACHN
- test name: NCI tumour cell line growth inhibition, 48 h
Counter-ions that a name gives are not always drawn. Activity calls are given as the source filed them. Rule as the data show it: active = GI50 up to about 1.1 µM and inactive = higher.
reported metric: GI50

Solved entries (count: 5):
CCCSc1nc(-c2ccc(OC)cc2)c(C#N)c(=O)n1C1OC(COC(C)=O)C(OC(C)=O)C(OC(C)=O)C1OC(C)=O (centres undefined)    > 100 µM (inactive)
O=[N+]([O-])/C(Cl)=C(\NCCN/C(C(Cl)=C(Cl)Cl)=C(/Cl)[N+](=O)[O-])C(Cl)=C(Cl)Cl    > 100 µM (inactive)
O=C(O)CC(NC(=O)C(F)(F)F)C(=O)NC1Cc2ccccc2OC1=O (centres undefined)    > 100 µM (inactive)
COC(=O)C(CSSC[C@H](N/C(C)=C/C(C)=O)C(=O)OC)N/C(C)=C/C(C)=O (some centres undefined)    < 0.01 µM (active)
O[C@]12c3ccccc3C1CCCCC2N1CCOCC1 (some centres undefined)    > 100 µM (inactive)

Recorded GI50 of CC(=O)OC1CCn2c1nc1c2C(=O)C=C(N2CC2)C1=O (centres undefined) , please.
0.0354 µM (active)

Another molecule to look at: CCOC(=O)/C=C(\C(=O)OCC)n1cnc2c(N)ncnc21
6.67 µM (inactive)

Another molecule to look at: O=C1c2cc(Br)ccc2-c2ccc3c4ccc5c6c(ccc(c7ccc1c2c73)c64)C(=O)c1cc(Br)ccc1-5
> 100 µM (inactive)

Another molecule to look at: CC1=NCCc2c1[nH]c1cc(O)ccc21 [HARMALOL HYDROCHLORIDE]
> 100 µM (inactive)

====

- System: A549
- test name: NCI tumour cell line growth inhibition, 48 h
Active and inactive are the calls of the source. Rule as the data show it: active = GI50 up to about 1.1 µM and inactive = higher.
reported metric: GI50

CC(C)(C)c1cc(OCc2nnc3sc(-c4ccc(Cl)cc4)nn23)c(Cl)cc1OCc1nnc2sc(-c3ccc(Cl)cc3)nn12    4.21 µM (inactive)
Cc1cc(C)cc(Nc2nnc3n2S(=O)(=O)c2cc(C)c(Cl)cc2S3)c1    5.01 µM (inactive)
O=S1(=O)c2ccccc2Oc2ccc(C(/C=N/O)=N/O)cc21    65.5 µM (inactive)
COC12OC3(C4OC41)C(C(=O)O[C@H]3CO[Si](C)(C)C(C)(C)C)C2S(=O)(=O)c1ccccc1 (stereo not given in full)    > 4.65 µM (inactive)

Alright, here's another compound for you.
Recorded GI50 of NC(CCCNCc1ccccc1)C(=O)O (stereo not given) , please.
> 100 µM (inactive)

====

Listing of entries alongside the reported GI50.
- Test system: NCI/ADR-RES
- test name: NCI tumour cell line growth inhibition, 48 h
The source made the active and inactive calls. No stated cut-off is given here; in the data, active = GI50 up to about 1.1 µM and inactive = higher.

Solved entries (count: 3):
Cc1cc(S(=O)(=O)Nc2nc3ccccc3[nH]2)c(S)cc1Cl    > 100 µM (inactive)
O=c1c2cc(S(=O)(=O)Nc3c(Cl)cccc3Cl)ccc2ncn1NS(=O)(=O)c1ccc2ccccc2c1    > 62.5 µM (inactive)
O=C1C=C2CC[C@H]3[C@@H]4CC[C@H](OC(=O)c5cccc6cc7ccccc7nc56)[C@H]4CC[C@@H]3[C@H]2CC1    > 100 µM (inactive)

For the record CCOc1cc(NC(C)=O)ccc1C(=O)NN1C(=O)C(Oc2ccccc2)C1c1ccccc1 (centres undefined) , what value of GI50 is listed for NCI/ADR-RES?
> 100 µM (inactive)

====

Listing of entries alongside the reported GI50.
- System: OVCAR-8
- test name: NCI tumour cell line growth inhibition, 48 h
Where a name gives a salt, the structure may show the parent alone. Calls of active or inactive are those of the source. Rule as the data show it: active = GI50 up to about 1.1 µM and inactive = higher.

Solved entries (count: 3):
Cc1cc(C)cc(Nc2nnc3n2S(=O)(=O)c2cc(C)c(Cl)cc2S3)c1    3.97 µM (inactive)
CNCCC=C1c2ccccc2CCc2ccccc21 [NORTRIPTYLINE HYDROCHLORIDE]    17 µM (inactive)
O=C(NCCCCCCCCNC(=O)Nc1cccc2ccccc12)Nc1cccc2ccccc12    18.5 µM (inactive)

Recorded GI50 of O=C(O)c1ccccc1C(=O)NCC1S(=O)(=O)OCCOS1(=O)=O , please.
> 100 µM (inactive)

Another compound to look at: On1c(-c2ccccc2)c(-c2c(-c3ccccc3)n(O)c3ccccc23)c2ccccc21
26.1 µM (inactive)

Another compound to look at: CCCCn1c(C)c(C(=O)OCC)c2cc(OCc3ccc(C(=O)Nn4c(C)ccc4C)cc3)c(Br)cc21
> 100 µM (inactive)

Another compound to look at: O=P(Oc1ccc2ccccc2c1)(N1CC1)N1CC1
59.2 µM (inactive)

Another compound to look at: COc1ccc(C=C(c2ccc(OCc3ccccc3)cc2)c2ccc(OCc3ccccc3)cc2)cc1
> 100 µM (inactive)

====

- Tested on: SK-OV-3
- test name: NCI tumour cell line growth inhibition, 48 h
Active and inactive are the calls of the source. No stated cut-off is given here; in the data, active = GI50 up to about 1.1 µM and inactive = higher.
Listing of entries alongside the reported GI50.

Solved entries (count: 5):
Oc1c(CN2CCCC2)ccc2cccnc12    25.9 µM (inactive)
NCc1cc(O)c(O)c(O)c1    > 100 µM (inactive)
COc1cc(=O)n2c3ccccc3n(C)c2c1C#N    > 100 µM (inactive)
Clc1nc(NC23CC4CC(CC(C4)C2)C3)nc(NC23CC4CC(CC(C4)C2)C3)n1    > 76.6 µM (inactive)
CCc1ccc(Cc2ccc(CC)c(NC(=O)C(=O)Cc3nc4ccccc4nc3C)c2CC)c(CC)c1NC(=O)C(=O)Cc1nc2ccccc2nc1C    > 100 µM (inactive)

Alright, here's another compound for you.
Recorded GI50 of COc1ccc(C(=O)C=C2NCCN2)cc1 , please.
> 100 µM (inactive)

Data credit: ChEMBL document CHEMBL1201862
